assay: Plasmodium falciparum growth inhibition, primary screen, strain 3D7, DAPI fluorescence, 100 nL (AID 1184);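 further: parasites grown inside human red blood cells in medium with human serum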; conditions: P. falciparum 3D7 growth, 3 d, higher = more signal
Entries and their z-score
measurementLabel: z-score

compound	measurementLabel	numericReadout
O=C(O)[C@@H]1C[C@@H]2C(=O)N3CCC[C@H]3C(=O)N2[C@@H]1c1cccc(OCCO)c1	z-score	-0.382
C=CCNC(=O)[C@@H]1[C@H]2C(=O)O[C@H](c3ccccc3)[C@H](c3ccccc3)N2[C@H](c2ccc(OCCO)cc2)[C@@]12C(=O)N(C(=O)OCCOC)c1ccc(C#CCCO)cc12	z-score	-1.56
CC(C)C[C@@H]1NC(=O)CNC(=O)[C@@]23C(=O)N[C@@H](Cc4ccccc4)C2[C@H](C)[C@@]2(C)O[C@H]2C3/C=C/C/C=C\CNC1=O (stereo not given in full)	z-score	0.0276
COc1ccc(C(=O)Nc2cccc(CN3C(=O)[C@@]4(O[C@@H](CC(=O)N(CCO)Cc5ccccc5)[C@H]([Si](C)(C)c5ccc(OC)cc5)[C@H]4C)c4ccccc43)c2)cc1	z-score	-2.54
[N-]=[N+]=NCc1ccccc1C[C@]1(C(=O)N2CCOCC2)COC(c2ccc(OCCCO)cc2)=N1	z-score	-2.2
Cc1cccc([C@H]2C[C@H]3C(Br)=C[C@@H]2C(=O)[C@]32CO2)c1	z-score	-0.528
COc1cc(CO)cc(I)c1O[C@H]1C=C(C(=O)NCCO)C[C@@H](NCC2CCCCC2)[C@@H]1O	z-score	-0.68
CN(C)C(=O)[C@]1(CCS(=O)(=O)c2ccccc2)N=C(c2ccc(OCCCO)cc2)O[C@@H]1c1ccccc1	z-score	-1.96
CC(C)CCC[C@@H](C)[C@H]1CC[C@@]2(C)C3=C(CC[C@]12C)[C@@]1(C)CC[C@H](OC(=O)c2ccccc2)C(C)(C)C1CC3 (stereo not given in full)	z-score	-0.544
COC(=O)C(CC#Cc1ccc2c(c1)[C@]1(C(=O)N2)[C@H](c2ccc(OCCO)cc2)N2[C@H](c3ccccc3)[C@H](c3ccccc3)OC(=O)[C@H]2[C@@H]1C(=O)N1CCN(c2ncccn2)CC1)C(=O)OC	z-score	-2.2
CN(C)C(=O)[C@@]1(Cc2ccccc2N=[N+]=[N-])N=C(c2ccc(OCCCO)cc2)O[C@H]1c1ccccc1	z-score	-2.19
Cc1nc2cc(Br)ccc2c(=O)n1Cc1cccc(O)c1	z-score	-0.563
CCCCCN1CC=CC23O[C@@H]4/C=C\CCC(C)OC(=O)C4[C@H]2C(=O)N(CCCCCCO)[C@@H]3C1=O (stereo not given in full)	z-score	0.162
C=CCC(OC(C)=O)[C@@H]1[C@@H](N(Cc2ccc(-c3cccc(C(F)(F)F)c3)o2)C(=O)c2cccc3ccccc23)c2cc(OCCCO)ccc2N1C(=O)Cc1ccc(OC)cc1 (stereo not given in full)	z-score	-2.43
COCCCNC(=O)[C@@]1(Sc2ccc(C)cc2)CC(=O)N(C(C)C)[C@@H]1c1ccc(CO)cc1I	z-score	-1.63

Reference for the values: PubChem BioAssay
